Data provenance is PubChem BioAssay.

Field: differential viability (reversal). Provide a value for each of the compounds that follow.
assay text: MRP1 drug-resistance reversers in H69AR cells – cell-based, doxorubicin co-treatment, pilot screen (AID 601)
condition description: H69AR cells + 2 uM doxorubicin, CellTiter-Glo, 72 h; at 10 µM; stronger effect = higher value
One number for each entry, in %.

See these solved cases before continuing.
compound: CC1=C(C(=O)OC(C)C)C(c2ccccn2)n2ncnc2N1 (stereo unspecified)
measured attribute: differential viability (reversal)
endpoint value: 6.04
//
compound: CCn1c(CCNC(=O)c2ccc(OC)c(OC)c2)nc2ccccc21
measured attribute: differential viability (reversal)
endpoint value: 6.54

Please give differential viability (reversal) for each item listed below.
1. O=C(c1ccc2snnc2c1)N1CCOCC1
2. O=C(c1cnc2n(c1=O)CCS2)N1CCc2ccccc21
3. C=C(C)Cn1c(N2CC(C)CC(C)C2)nc2c1c(=O)[nH]c(=O)n2C (stereo unspecified)
4. CCOc1ccc(NC(=O)CN2C(=O)C3CCCN3C2=O)cc1 (stereo unspecified)

Data returned:
12.8
3.18
-11.8
3.86

# per-item lookup of differential viability (reversal); items listed below
1. CC1CCN(Cc2nc3c(c(=O)n(C)c(=O)n3C)n2Cc2cccc3ccccc23)CC1
2. COC(=O)C1(C#N)C(c2ccccc2)C1(C(=O)OC)C(=O)OC (stereo unspecified)
3. CCN(CC)C(=O)Cn1ncc2c1-c1ccccc1OC2
4. CC(C)(C)SCCNC(=O)CSc1ccccc1
5. COc1ccc(S(=O)(=O)Cc2ccc(C(=O)NCCc3ccc(S(N)(=O)=O)cc3)o2)cc1
6. Cc1onc(-c2c(Cl)cccc2Cl)c1C(=O)NCC1CCCO1 (stereo unspecified)

Data returned:
1. -4.26
2. 11.3
3. 15.7
4. 9.85
5. 12.1
6. 16

###

assay text: S. cerevisiae growth inhibition in permissive medium (OD615), pilot counter-assay for S. cerevisiae lifespan shortening project, permissive growth control (AID 705)
condition description: OD615, 24 h, at 10 µM, stronger effect = higher value
measured attribute: growth inhibition (%)
One number for each entry, in %.

compound: Cc1cccc(NC(=O)Nc2cccc(C#N)c2)n1
growth inhibition, %: -8.45

compound: Cc1cc(C)c2c(=O)n(CC(=O)N3CCC(Cc4ccccc4)CC3)sc2n1
growth inhibition, %: 73

compound: O=C(O)C1C(c2ccccc2)C(C(=O)OCc2ccco2)C1c1ccccc1 (stereo unspecified)
growth inhibition, %: -15.4

Each of the following entries comes with a recorded value; kindly state growth inhibition for each.
1. O=C(Nc1nc2ccccc2s1)c1ccc(Cl)s1
2. O=C(c1nnc(Cc2ccc(Cl)cc2)o1)N1CCc2ccccc2C1

Data returned:
1: -14.7; 2: -7.83

Lab book: growth inhibition of CCOc1ccc(-n2nnc3c(=O)n(CC(=O)N4CCCc5ccccc54)cnc32)cc1 noted as -3.47

###

assay text: H69AR cell proliferation blockers – human, duplicate replicates, primary screen (AID 580);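 note: 100% = mean luminescence of untreated wells and 0% = no signal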
condition description: H69AR lung tumor cells viability, ATP luminescence, 72 h; at 10 µM; stronger effect = lower value
measured attribute: viability (%)
Give bare numbers, in %.

compound: CCCCN(CC)CCCNC(=O)c1cc2c(=O)n(C)c3ccccc3c2n1C
viability / %: 70.1

Please go through the list and note viability for each compound.
1. O=C(Cn1cc2c(n1)CCCCC2)N1CCc2ccccc21
2. COc1ccc(C(NC(=O)c2ccco2)c2ccc(OC)c(OC)c2)cc1 (stereo unspecified)
3. Cc1ccc(C)c(C(=O)CC2(O)C(=O)N(C)c3ccccc32)c1 (stereo unspecified)
4. O=c1c2ccccc2nc(SCc2nc(-c3ccccc3)no2)n1-c1ccc(F)cc1

Data returned:
[87.8, 96.2, 92.2, 89.7]

###

assay text: MRP1 drug-resistance reversers in H69AR cells – cell-based, doxorubicin co-treatment, pilot screen (AID 601)
condition description: H69AR cells + 2 uM doxorubicin, CellTiter-Glo, 72 h; at 10 µM; stronger effect = higher value
So I've got a bunch of molecules here, and I need their differential viability (reversal) values.
One number for each entry, in %.

// worked examples, differential viability (reversal) included
molecule: O=C(NCCN1C(=O)C2C3C=CC(C3)C2C1=O)Nc1ccccn1 (stereo unspecified)
differential viability (reversal) [%]: 12.5
--
molecule: COc1ccc(OCc2nc(C#N)c(N3CCN(c4ccc(OC)cc4)CC3)o2)cc1
differential viability (reversal) [%]: 15
--
molecule: CC(C)c1nccn1S(=O)(=O)c1cc(Cl)ccc1Cl
differential viability (reversal) [%]: 3.94
--
molecule: CCCNc1nc(N2CCOCC2)nc(N2CCOCC2)n1
differential viability (reversal) [%]: -3.39
--
molecule: COc1ccc(OC)c2[nH]c(=O)c(CCNC(=O)C(C)C)cc12
differential viability (reversal) [%]: -1.89
--
molecule: CCN(CC)CCCNC(=O)c1cn(C)c2ccc(S(=O)(=O)N(C)C)cc2c1=O
differential viability (reversal) [%]: 2.72
--
molecule: CC1(C)CC(=O)CC(C2(O)C(=O)N(Cc3ccccc3)c3ccccc32)O1 (stereo unspecified)
differential viability (reversal) [%]: -12.7
--
molecule: O=C(CCn1[nH]c(=O)c2ccccc2c1=O)NCCO
differential viability (reversal) [%]: -2.56
--
molecule: CC1CCc2nn(CC(=O)N3CCN(C(=O)c4ccco4)CC3)cc2C1 (stereo unspecified)
differential viability (reversal) [%]: 11.8
--
molecule: CC1=C(C(=O)Nc2cccnc2)C(c2ccc(C(C)C)cc2)n2ncnc2N1 (stereo unspecified)
differential viability (reversal) [%]: 26.7

Lab note: next molecule to report on.
Lab note: measured differential viability (reversal) of CCN1CCN(C(c2cccs2)C(C)NC(=O)c2ccccc2)CC1 (stereo unspecified) was 6.01

###

assay text: HUVEC growth inhibition – cell-based, human, primary screen (AID 575);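 note: 100% = median of untreated cell wells with 0.1% DMSO on each plate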
condition description: HUVEC proliferation, CellTiter-Glo luminescence, 72 h; at 10 µM
Activity calls are given as the source filed them.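 How the source made its calls: active means viability at or below 30% in both replicate assays; inconclusive means viability at or below 30% in just one of the two assays; inactive means the rest.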
Outcome field: choose from active, inactive

The examples below pair each entry with its known result.
compound: COc1ccc(S(=O)(=O)Nc2ccc(F)c(Cl)c2)cc1OC
group label: inactive

compound: COc1ccccc1NC(=O)CSc1nnc(Cc2cccn2C)n1-c1ccc(F)cc1
group label: inactive

compound: COc1cc(C(=O)N2CCN(c3cc(Cl)ccc3Cl)CC2)cc(OC)c1OC
group label: active

compound: CCC(CC)C(=O)NCCc1cc2ccc(C)cc2[nH]c1=O
group label: inactive

compound: O=C(Nc1ccncc1)C1CCCN(S(=O)(=O)c2cccc3cccnc23)C1 (stereo not given)
group label: inactive

compound: CCN(CC)CCNC(=O)c1ccc(CS(=O)(=O)c2ccc(Br)cc2)o1
group label: inactive

compound: COc1ccc2c(c1OC)C(=O)OC2CC(=O)c1ccc(O)cc1 (stereo not given)
group label: inactive

compound: COc1cc(NC(=O)C2C3C=CC(C3)C2C(=O)O)c(OC)cc1Cl (stereo not given)
group label: inactive

compound: COc1ccc(OC)c(C2=NOC(C(=O)Nc3c(C)n(C)n(-c4ccccc4)c3=O)C2)c1 (stereo not given)
group label: inactive

We now examine a further compound.
Data request: # fetch the recorded call for O=C(Cn1ncc2c1-c1ccccc1OC2)N1CCN(c2ccccn2)CC1 here
Data returned: inactive

###

assay text: MRP1 drug-resistance reversers in H69AR cells – cell-based, doxorubicin co-treatment, pilot screen (AID 601)
condition description: H69AR cells, CellTiter-Glo, 72 h; compound alone cytotoxicity; at 10 µM
Give viability for every item shown.

compound: CCc1nc2sc(C)c(C)c2c(=O)n1CCO
viability: 94.7%
//
compound: O=C(Nc1ccc(Cl)cn1)c1cccnc1
viability: 70.1%
//
compound: COC(=O)Cn1c(=O)c2c(nc3n2CC(C)CN3c2ccc(C)c(C)c2)n(C)c1=O (stereo unspecified)
viability: 85.5%
//
compound: COc1ccc(S(=O)(=O)N(CC(=O)N2CCN(c3ccccc3OC)CC2)c2ccccc2)cc1
viability: 86.8%
//
compound: CCOC(=O)N1CCC(NC(=O)c2cnn3ccccc23)CC1
viability: 87.1%
//
compound: COC(=O)Cc1cc(=O)[nH]c(Nc2nc3ccccc3o2)n1
viability: 78.3%
//
compound: O=C1CCCC2=C1C(c1cccs1)n1nc(SCc3ccccc3F)nc1N2 (stereo unspecified)
viability: 81.7%
//
compound: O=C(NCc1cccs1)C(Cc1ccccc1)NS(=O)(=O)c1cccs1 (stereo unspecified)
viability: 91.7%
//
compound: CC(C)(C)NC(=O)Cn1c(=O)oc2ccc(Cl)cc21
viability: 92.9%
//
compound: O=C(OCn1nnc2ccccc2c1=O)c1cc2ccccc2o1
viability: 91.7%

Below: the item to evaluate.
response.value for O=C(C1CC1)N1CCc2cc(Br)cc(S(=O)(=O)N3CCOCC3)c21 (field: viability) = 90.6%

###

assay text: H69AR cell proliferation blockers – human, duplicate replicates, primary screen (AID 580);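 note: 100% = mean luminescence of untreated wells and 0% = no signal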
condition description: H69AR lung tumor cells viability, ATP luminescence, 72 h; at 10 µM; stronger effect = lower value
measured attribute: viability (%)
One number for each entry, in %.

compound: COc1ccc(S(=O)(=O)N2CCCC2C(=O)Nc2ccc(O)cc2)cc1 (stereo not drawn)
viability / %: 98.4

Provide viability for all items below, preserving their order.
1. CCOC(=O)Cn1ncc(-c2ccccc2)c1N
2. COc1cc2c(cc1OC)CN(C(=O)CSc1nnc3scc(-c4ccccc4)n13)CC2
3. Cn1c(C(=O)NCCCN2CCN(c3ccc(F)cc3)CC2)cc2c(=O)n(C)c3ccccc3c21
4. O=C(Nc1ccc2c(c1)OCCO2)NC1CCCCC1

Data returned:
1: 93; 2: 85.3; 3: 84.1; 4: 85.9

// batch mode: one viability value per listed entry
1. CCN(CC)S(=O)(=O)c1ccc2oc(C(=O)N3CCOCC3)c(C)c2c1
2. O=C(COc1ccc(F)cc1)Nc1ccc(-n2cnnn2)cc1
3. O=C(CSc1ncnc2nc[nH]c12)c1ccc(Cl)cc1
4. Cc1ccc(-c2noc(CN3C(C)CCCC3C)n2)cc1 (stereo not drawn)
5. N#CC(C(=O)Nc1ccccc1)=C1CCCCC1
6. Cc1cc(=O)oc2c1c(C)nn2-c1ccc(C(=O)OC(C)C)cc1
7. COc1ccc(NS(=O)(=O)c2coc(C(N)=O)c2)cc1Cl
8. O=C(C1CCC(CNc2c(N3CCCCC3)c(=O)c2=O)CC1)N1CCc2ccccc2C1 (stereo not drawn)

Data returned:
1. 96.5
2. 93.1
3. 91.1
4. 89.3
5. 109
6. 96.9
7. 99.1
8. 91.8

// each listed compound needs a value for viability
1. CC1(C)CC(=O)c2cnc(NC(=O)CCc3ccccc3)nc2C1
2. COc1ccccc1S(=O)(=O)Cc1ccc(C(=O)NCCN2CCCCCC2)o1
3. Cc1cccc(C)c1OCc1nnc(SCC(=O)Nc2ccccc2F)o1
4. O=C(O)C1C2C=CC3(CN(C4CCCC4)C(=O)C13)O2 (stereo not drawn)
5. CC(=O)NC(CCS(C)(=O)=O)C(=O)Nc1cccc(C)c1C (stereo not drawn)
6. CCOC(=O)c1sc(NC(=O)c2noc3c2CCCC3)c(C(=O)OCC)c1C

Data returned:
1. 90.2
2. 102
3. 83
4. 83.7
5. 75.9
6. 67.8

Hi there! I need viability for each item below, if you can.
1. CCc1nn(CC(=O)NCCCN2CCc3ccccc3C2)c(=O)c2cc3sccc3n12
2. O=C(Nc1cccc2ccccc12)c1ccc(Br)o1

Data returned:
[77.5, 84]

Take each entry in turn and give its viability.
1. CCOC(=O)N1CCC(NC(=O)c2ccc(CS(=O)(=O)c3c(Cl)cccc3Cl)o2)CC1
2. Cc1ccc(CNC(=O)C2CCCN(S(=O)(=O)c3cnc[nH]3)C2)cc1 (stereo not drawn)

Data returned:
104
106
